# target of assay: aldose reductase (Bos taurus, UniProt P16116)
# Construct: preparation of the enzyme from bovine lens; from tissue; host or cells: bovine lens
# method notes: in vitro aldose reductase inhibition (modified Hayman and Kinoshita; enzyme from bovine lens)
# Assay type: biochemical
# assay context: 10^-5 M; read-out: % Inhibition IN VITRO
assay metric: inhibition at 10 µM (%)

CN1C(=O)c2ccccc2C2(CC(=O)NC2=O)C1=O (centres unmarked) [H H CH3] ... 95
O=C1C[C@]2(C(=O)N1)C(=O)N(Cc1ccc(Br)cc1F)C(=O)c1ccccc12 ... 87
COc1ccc2c(c1)C(=O)N(Cc1ccc(Br)cc1F)C(=O)C21CC(=O)NC1=O (centres unmarked) ... 97
COc1cc2c(cc1Br)C1(CC(=O)NC1=O)C(=O)N(Cc1ccc(Br)cc1F)C2=O (centres unmarked) ... 98
O=C1CC2(C(=O)N1)C(=O)N(Cc1ccc(Br)cc1F)C(=O)c1ccc(Cl)cc12 (centres unmarked) ... 97
